Experiment: In vitro dissociation in blood plasma of rabbit
Assay type: in vitro ADME, New Zealand white rabbits
Conditions: fresh New Zealand white rabbit plasma, 37° C., 5 min
Counter-ions that a name gives are not always drawn.
assayReadout: Sampling time/Dissociation percent (%) 5 min
Respond with the bare value in %.

Consider the following illustrative entries.
compound="CO[C@H]1C(=O)[C@]2(C)[C@@H](OC)C[C@H]3OC[C@@]3(OC(C)=O)[C@H]2[C@H](OC(=O)c2ccccc2)[C@]2(O)C[C@H](OC(=O)[C@H](OC(=O)[C@H](F)CCN(C)C)[C@@H](NC(=O)OC(C)(C)C)c3ccccc3)C(C)=C1C2(C)C [Compound 07, hydrochloride]" numericresult=95.5
compound="CC(=O)O[C@@]12CO[C@@H]1C[C@H](O)[C@@]1(C)C(=O)[C@H](O)C3=C(C)[C@@H](OC(=O)[C@H](OC(=O)C(F)CCN(C)C)[C@@H](NC(=O)OC(C)(C)C)c4ccccc4)C[C@@](O)([C@@H](OC(=O)c4ccccc4)[C@H]21)C3(C)C.CS(=O)(=O)O (stereo partly shown)" numericresult=97.8
compound="COC1C(=O)C2(C)C(OC)CC3OCC3(OC(C)=O)C2C(OC(=O)c2ccccc2)C2(O)CC(OC(=O)C(OC(=O)C(F)CCN(C)C)C(NC(=O)OC(C)(C)C)c3ccccc3)C(C)=C1C2(C)C.Cl (stereo not shown)" numericresult=97.1

Next compound, Sampling time/Dissociation percent (%) 5 min to be filled in.
Can you share its Sampling time/Dissociation percent (%) 5 min? I mean this compound: CC(=O)O[C@@]12CO[C@@H]1C[C@H](O)[C@@]1(C)C(=O)[C@H](O)C3=C(C)[C@@H](OC(=O)[C@H](OC(=O)[C@@H](F)CCN(C)C)[C@@H](NC(=O)OC(C)(C)C)c4ccccc4)C[C@@](O)([C@@H](OC(=O)c4ccccc4)[C@H]21)C3(C)C.Cl
91.8

---

Assay: In vitro dissociation in blood plasma of rat
Format: in vitro ADME, SD rats
Conditions: fresh SD rat plasma, 37° C., 5 min incubation
assayReadout: Sampling time/Dissociation percent (%) 5 min
Respond with the bare value in %.

molecule=CC(=O)O[C@H]1C(=O)[C@@]2(C)[C@H]([C@H](OC(=O)c3ccccc3)[C@]3(O)C[C@H](OC(=O)[C@H](OC(=O)[C@H](F)CCN(C)C)[C@@H](NC(=O)c4ccccc4)c4ccccc4)C(C)=C1C3(C)C)[C@]1(OC(C)=O)CO[C@@H]1C[C@@H]2O.Cl numericresult=96.8
molecule=CC(=O)O[C@@]12CO[C@@H]1C[C@H](O)[C@@]1(C)C(=O)[C@H](O)C3=C(C)[C@@H](OC(=O)[C@H](OC(=O)[C@@H](F)CCN(C)C)[C@@H](NC(=O)OC(C)(C)C)c4ccccc4)C[C@@](O)([C@@H](OC(=O)c4ccccc4)[C@H]21)C3(C)C.CS(=O)(=O)O numericresult=93.3
molecule=CO[C@H]1C(=O)[C@]2(C)[C@@H](OC)C[C@H]3OC[C@@]3(OC(C)=O)[C@H]2[C@H](OC(=O)c2ccccc2)[C@]2(O)C[C@H](OC(=O)[C@H](OC(=O)[C@@H](F)CCN(C)C)[C@@H](NC(=O)OC(C)(C)C)c3ccccc3)C(C)=C1C2(C)C.Cl numericresult=87.6
molecule="CCCC(CC(F)(F)C(=O)O[C@@H](C(=O)O[C@H]1C[C@@]2(O)[C@@H](OC(=O)c3ccccc3)[C@@H]3[C@]4(OC(C)=O)CO[C@@H]4C[C@H](O)[C@@]3(C)C(=O)[C@H](O)C(=C1C)C2(C)C)[C@@H](NC(=O)OC(C)(C)C)c1ccccc1)N1CC1.Cl (some centres unmarked)" numericresult=54.4
molecule="CC(=O)O[C@H]1C(=O)[C@@]2(C)[C@H]([C@H](OC(=O)c3ccccc3)[C@]3(O)C[C@H](OC(=O)[C@H](OC(=O)C(F)CCN(C)C)[C@@H](NC(=O)c4ccccc4)c4ccccc4)C(C)=C1C3(C)C)[C@]1(OC(C)=O)CO[C@@H]1C[C@@H]2O.Cl (some centres unmarked)" numericresult=93.1
molecule=CC(=O)O[C@H]1C(=O)[C@@]2(C)[C@H]([C@H](OC(=O)c3ccccc3)[C@]3(O)C[C@H](OC(=O)[C@H](OC(=O)[C@@H](F)CCN(C)C)[C@@H](NC(=O)c4ccccc4)c4ccccc4)C(C)=C1C3(C)C)[C@]1(OC(C)=O)CO[C@@H]1C[C@@H]2O.Cl numericresult=95.6
molecule="CC(=O)O[C@@]12CO[C@@H]1C[C@H](O)[C@@]1(C)C(=O)[C@H](O)C3=C(C)[C@@H](OC(=O)[C@H](OC(=O)[C@H](F)CC(C)N(C)C)[C@@H](NC(=O)OC(C)(C)C)c4ccccc4)C[C@@](O)([C@@H](OC(=O)c4ccccc4)[C@H]21)C3(C)C.Cl (some centres unmarked)" numericresult=84.8
molecule=CO[C@H]1C(=O)[C@]2(C)[C@@H](OC)C[C@H]3OC[C@@]3(OC(C)=O)[C@H]2[C@H](OC(=O)c2ccccc2)[C@]2(O)C[C@H](OC(=O)[C@H](OC(=O)[C@H](F)CCN(C)C)[C@@H](NC(=O)OC(C)(C)C)c3ccccc3)C(C)=C1C2(C)C.CS(=O)(=O)O numericresult=88.9

Can you share its Sampling time/Dissociation percent (%) 5 min? I mean this molecule: CC(=O)OC12COC1CCC1(C)C3OC(CN(C)C)OC3C3=C(C)C(OC(=O)C(OC(=O)C(F)CC(C)N(C)C)C(NC(=O)OC(C)(C)C)c4ncccc4F)CC(O)(C(OC(=O)c4ccccc4)C12)C3(C)C.CS(=O)(=O)O (centres unmarked)
93.5

Can you share its Sampling time/Dissociation percent (%) 5 min? I mean this molecule: CCN(CC)CC[C@](C)(C(=O)O[C@@H](C(=O)O[C@H]1C[C@@]2(O)[C@@H](OC(=O)c3ccccc3)[C@@H]3[C@]4(OC(C)=O)CO[C@@H]4C[C@H](OC)[C@@]3(C)C(=O)[C@H](OC)C(=C1C)C2(C)C)[C@@H](NC(=O)OC(C)(C)C)c1ccccc1)C(F)(F)F.CS(=O)(=O)O
89.6

Can you share its Sampling time/Dissociation percent (%) 5 min? I mean this molecule: CCN(CC)CC[C@](C)(C(=O)O[C@@H](C(=O)O[C@H]1C[C@@]2(O)[C@@H](OC(=O)c3ccccc3)[C@@H]3[C@]4(OC(C)=O)CO[C@@H]4C[C@H](OC)[C@@]3(C)C(=O)[C@H](OC)C(=C1C)C2(C)C)[C@@H](NC(=O)OC(C)(C)C)c1ccccc1)C(F)(F)F.Cl
88.4

Can you share its Sampling time/Dissociation percent (%) 5 min? I mean this molecule: CCCCC(CC(F)(C(=O)OC(C(=O)OC1CC2(O)C(OC(=O)c3ccccc3)C3C4(OC(C)=O)COC4CC(O)C3(C)C(=O)C(OC(C)=O)C(=C1C)C2(C)C)C(NC(=O)c1ccccc1)c1ccccc1)C(F)(F)F)N(C)C1CCCC1.Cl (mixture of isomers)
45.3

Can you share its Sampling time/Dissociation percent (%) 5 min? I mean this molecule: COC1C(=O)C2(C)C(OC)CC3OCC3(OC(C)=O)C2C(OC(=O)c2ccccc2)C2(O)CC(OC(=O)C(OC(=O)C(CCN)C(F)F)C(NC(=O)OC(C)(C)C)c3ccccc3)C(C)=C1C2(C)C.O=S(=O)([O-])O.[Na+] (centres unmarked)
86.5

Can you share its Sampling time/Dissociation percent (%) 5 min? I mean this molecule: CC(=O)O[C@@]12CO[C@@H]1C[C@H](O)[C@@]1(C)C(=O)[C@H](O)C3=C(C)[C@@H](OC(=O)[C@H](OC(=O)C(F)CCN(C)C)[C@@H](NC(=O)OC(C)(C)C)c4ccccc4)C[C@@](O)([C@@H](OC(=O)c4ccccc4)[C@H]21)C3(C)C.CS(=O)(=O)O (some centres unmarked)
93.3
